Tgt: Kappa-type opioid receptor (Cavia porcellus)
Sequence (P41144 whole entry): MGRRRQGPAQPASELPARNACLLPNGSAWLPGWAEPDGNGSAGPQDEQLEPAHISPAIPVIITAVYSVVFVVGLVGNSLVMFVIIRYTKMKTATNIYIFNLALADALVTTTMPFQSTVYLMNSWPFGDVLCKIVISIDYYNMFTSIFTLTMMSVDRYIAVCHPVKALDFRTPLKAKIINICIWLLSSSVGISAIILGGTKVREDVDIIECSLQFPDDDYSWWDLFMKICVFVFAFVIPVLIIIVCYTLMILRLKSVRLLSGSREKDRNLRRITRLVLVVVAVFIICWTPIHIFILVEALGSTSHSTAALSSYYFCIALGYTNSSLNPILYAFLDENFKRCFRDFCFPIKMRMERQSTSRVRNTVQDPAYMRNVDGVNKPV
Assay summary: Displacement of [3H]U-69593 from kappa opioid receptors in guine pig brain (minus cerebellum).
Format: tissue-based
Labels assigned by Ki range: group 1 (below 2 nM), group 2 (2 nM to below 20 nM), group 3 (20 nM or more)

>>> print(df.to_string())
                                   compound  qualitative_label
0  O=C(Cc1ccc(Cl)c(Cl)c1)N1CCCC[C@@H]1CN1CCCC1            group 2
1  O=C(Cc1ccc(Cl)cc1)N1CCCCC1CN1CCCC1 (centres undefined)            group 1
2  Cc1ccc(CC(=O)N2CCCCC2CN2CCCC2)cc1 (centres undefined)            group 2
3  O=C(Cc1ccc(C2CCCCC2)cc1)N1CCCCC1CN1CCCC1 (centres undefined)            group 3
4  O=C(Cc1ccccc1C(F)(F)F)N1CCCCC1CN1CCCC1 (centres undefined)            group 2
5  O=C(Cc1ccc(Cl)c(Cl)c1)N1CCCC[C@H]1CN1CCCC1            group 1
6  CC(C1CCCCN1C(=O)Cc1ccc(Cl)c(Cl)c1)N(C)C (stereo in doubt; 38)            group 3
7  O=C(Cc1cccc(C(F)(F)F)c1)N1CCCCC1CN1CCCC1 (centres undefined)            group 1
8  Cc1ccc(CC(=O)N2CCCCC2CN2CCCC2)cc1C (centres undefined)            group 1

* * *

Tgt: Mu-type opioid receptor (Cavia porcellus, UniProt P97266)
Sequence (P97266 whole entry): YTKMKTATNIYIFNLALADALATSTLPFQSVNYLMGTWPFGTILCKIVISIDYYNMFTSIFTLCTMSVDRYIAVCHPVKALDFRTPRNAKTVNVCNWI
Assay summary: Compound was evaluated for its binding affinity against Opioid receptor mu 1 subtype in guinea pig brain (minus cerebellum) using [3H]-DAGO as radioligand.
Assay type: tissue-based
pKi: −log10 of the molar value.
Measurement label: pKi

                                   molecule  numeric_result
0  O=C(Cc1ccc(Cl)c(Cl)c1)N1CCCCC1CN1CCCC1 (stereo not drawn)            5.73
1  O=C(Cc1ccc(Cl)c(Cl)c1)N1CCCCC1CN1CCCCC1 (stereo not drawn)            5.32
2  CN(C)CC1CCCCN1C(=O)Cc1ccc(Cl)c(Cl)c1 (stereo not drawn)            5.52

* * *

Test system: Mus musculus
Assay summary: Antinociceptive activity in mouse tail flick test following s.c. administration.
Format: functional
Condition label: Mus musculus, Tail, sc; read-out: ED50
Measurement label: ED50

                                    compound           tgt  measurement_label      result
 0  CN1CCCC1C1CCCCN1C(=O)Cc1ccc(Cl)c(Cl)c1 (stereo in doubt; 41)  Mus musculus               ED50   0.4 mg/kg
 1  O=C(Cc1ccc(F)cc1)N1CCCCC1CN1CCCC1 (stereo not given)  Mus musculus               ED50  9.22 mg/kg
 2  O=C(Cc1ccc(Br)cc1)N1CCCCC1CN1CCCC1 (stereo not given)  Mus musculus               ED50  0.46 mg/kg
 3  O=C(Cc1ccc(Cl)c(Cl)c1)N1CCCCC1CN1CCCCC1 (stereo not given)  Mus musculus               ED50  0.19 mg/kg
 4  CC(C)(C)c1ccc(CC(=O)N2CCCCC2CN2CCCC2)cc1 (stereo not given)  Mus musculus               ED50     1 mg/kg
 5  O=C(Cc1cccc(C(F)(F)F)c1)N1CCCCC1CN1CCCC1 (stereo not given)  Mus musculus               ED50  0.38 mg/kg
 6  O=C(Cc1ccc([N+](=O)[O-])cc1)N1CCCCC1CN1CCCC1 (stereo not given)  Mus musculus               ED50  0.49 mg/kg
 7  CC(C1CCCCN1C(=O)Cc1ccc(Cl)c(Cl)c1)N(C)C (stereo in doubt; 37)  Mus musculus               ED50  0.38 mg/kg
 8  Cc1ccc(CC(=O)N2CCCCC2CN2CCCC2)cc1 (stereo not given)  Mus musculus               ED50  3.88 mg/kg
 9  CN(C)CC1CCCCN1C(=O)Cc1ccc(Cl)c(Cl)c1 (stereo not given)  Mus musculus               ED50  0.92 mg/kg
10  O=C(Cc1ccc(Cl)c(Cl)c1)N1CCCCC1CN1CCCC1 (stereo not given)  Mus musculus               ED50  0.09 mg/kg
11  O=C(Cc1ccc(C(F)(F)F)cc1)N1CCCCC1CN1CCCC1 (stereo in doubt; 21)  Mus musculus               ED50  0.11 mg/kg
12  O=C(Cc1ccc(Cl)c(Cl)c1)N1CCCC[C@@H]1CN1CCCC1  Mus musculus               ED50  17.5 mg/kg
13  Cc1ccc(CC(=O)N2CCCCC2CN2CCCC2)cc1C (stereo not given)  Mus musculus               ED50  2.89 mg/kg
14  CN1CC[C@]23c4c5ccc(O)c4O[C@H]2[C@@H](O)C=C[C@H]3[C@H]1C5  Mus musculus               ED50   2.8 mg/kg
15  O=C(Cc1ccc(Cl)c(Cl)c1)N1CCCC[C@H]1CN1CCCC1  Mus musculus               ED50  0.05 mg/kg
16  CN(C)C[C@@H]1CCCCN1C(=O)Cc1ccc(Cl)c(Cl)c1  Mus musculus               ED50  0.87 mg/kg
17  O=C(Cc1cccc([N+](=O)[O-])c1)N1CCCCC1CN1CCCC1 (stereo not given)  Mus musculus               ED50  0.86 mg/kg
18  CCN(CC)CC1CCCCN1C(=O)Cc1ccc(Cl)c(Cl)c1 (stereo not given)  Mus musculus               ED50  0.77 mg/kg
19  O=C(Cc1ccc(Cl)cc1)N1CCCCC1CN1CCCC1 (stereo not given)  Mus musculus               ED50  0.84 mg/kg
